B1: glmS ribozyme (parent)
chain: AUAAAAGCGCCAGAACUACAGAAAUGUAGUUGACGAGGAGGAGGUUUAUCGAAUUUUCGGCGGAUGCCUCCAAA

- Variants of: B1
- PROTOCOL DESCRIPTION: self-cleavage kobs at 10000 uM GlcN6P; higher = faster cleavage; RNA array
- CONDITIONS: with glucosamine-6-phosphate
This sample holds only a part of the variants without activity.
MEASUREMENT KIND: self-cleavage kobs at 10000 uM GlcN6P (s⁻¹)
Hi! Could you send only the number? It should be in s⁻¹, unit omitted.

Reference set, count: 2
1) AUAAAAGCGCCAGAACUACAGAAAUGUAGUUGACGAGGAGGAGGUUUAUCGACUGUUCGGCGGAUGCCUCCAAA [A53C U55G] ... 0.00667
2) AUAAAAGCGCCAGAACUACAGAAAUGUAGCUGACGAGGAGGAGGUUUAUCGAAUUUUCGGCGGAUGCCUGCAAA [U30C C70G] ... 5.52e-05

Query (variant): AUAAAAGCGCCAGAACUACAGAAAUGUAGUUGACGAGGAGAAGGUUUAUCGAUGUUUCGGCGGAUGCCUCCAAA [G41A A53U U54G] ; field requested: self-cleavage kobs at 10000 uM GlcN6P
0.000285

Continue with AUAAAAGCGCCUGAACUACAGAAAUGUAGUUGACGAGGCGGAGGUUUAUCGGAUUUUCGGCGGAUGCCUCCAAA [A12U A39C A52G]
0.00015

Continue with AUAAAAGCGCCAGAACUACAGAAAUGUAGUUGACGAGGAGGAGGUUUAUCGAUUUUUCGGCGGAUGCCUGCAAA [A53U C70G]
0.000142

The reported measurements were obtained from the supplement of paper PMC7125110.
